Examples of molecules with documented IC50 follow.
Target: human orexin-1 receptor (Homo sapiens (Human))
Assay: In vitro intracellular calcium measurements (FLIPR), antagonistic activity on orexin-1 receptor
Assay type: cell-based
Conditions: read-out: IC50 OX1
Form entry: value (nM) — number only.

Please review the following examples before continuing.
{"structure notation": "Cc1ccc(C(=O)N2CCOC[C@H]2Cc2cccc(-n3nccn3)c2F)c(-n2nccn2)c1", "endpoint result": 15}
{"structure notation": "COc1ccc(-n2nccn2)c(C(=O)N2CCOC[C@H]2Cc2cccc(-n3nccn3)c2)c1", "endpoint result": 7}

IC50 for `Cc1ccc(C(=O)N2CCOC[C@H]2Cc2cc(Cl)cc(-n3nccn3)c2)c(-n2nccn2)c1` ?
2

Requested field: IC50. Item: `Cc1ccc(C(=O)N2CCOC[C@H]2Cc2ccc(C)c(-n3nccn3)c2)c(-n2nccn2)c1`
2

Given `Cc1ccc(C(=O)N2CCOC[C@H]2Cc2cc(-n3nccn3)ccc2C)c(-n2nccn2)c1` , state its recorded IC50.
5

# get_value(readout='IC50', item= `Cc1ccc(-n2nccn2)c(C(=O)N2CCOC[C@H]2Cc2cccc(-n3nccn3)c2)c1` )
2

---

Target: CYP3A4 (Homo sapiens (Human))
Sequence (P08684 whole entry): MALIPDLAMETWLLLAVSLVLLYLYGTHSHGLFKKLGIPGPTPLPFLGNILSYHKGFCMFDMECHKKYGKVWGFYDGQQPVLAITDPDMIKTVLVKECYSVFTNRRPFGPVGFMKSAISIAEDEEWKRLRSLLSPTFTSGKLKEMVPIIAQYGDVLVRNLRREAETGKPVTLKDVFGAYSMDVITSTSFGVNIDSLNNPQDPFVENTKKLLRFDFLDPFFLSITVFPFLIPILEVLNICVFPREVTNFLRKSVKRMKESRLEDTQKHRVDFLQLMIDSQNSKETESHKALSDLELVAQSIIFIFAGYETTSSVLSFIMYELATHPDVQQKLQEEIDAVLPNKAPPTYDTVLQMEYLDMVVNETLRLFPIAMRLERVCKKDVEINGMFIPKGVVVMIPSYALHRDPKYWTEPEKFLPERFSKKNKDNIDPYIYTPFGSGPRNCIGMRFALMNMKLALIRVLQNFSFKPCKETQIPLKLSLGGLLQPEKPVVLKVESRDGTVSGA
Experiment: CYP3A4 inhibition assay (human liver microsomes, testosterone 6β-hydroxylation)
Details: read-out: CYP3A4 IC50, 40 μM testosterone
Recorded IC50, one value per entry.
Give the quantity in µM, number only.

{"structure notation": "Cc1ccc(C(=O)N2C[C@@H](C)OC[C@H]2Cc2cccc(-n3nccn3)c2)c(-n2nccn2)c1C", "system tested": "CYP3A4 (Homo sapiens (Human))", "IC50 / µM": 9.6}

Need IC50 of `Cc1ccc(-n2nccn2)c(C(=O)N2CCOC[C@H]2Cc2cccc(-n3cncn3)c2)c1` , thanks.
6

Endpoint output: IC50 of `COc1ccc(C[C@@H]2COCCN2C(=O)c2cc(C)ccc2-n2nccn2)cc1-c1ncon1` . Value?
42

I have this compound here, `O=C(c1cc(F)ccc1-n1nccn1)N1CCOC[C@H]1Cc1cccc(-n2cccn2)c1` , and I need its recorded IC50.
25

What value of IC50 has been reported for the following compound? `Cc1cc(C(=O)N2CCOC[C@H]2Cc2cccc(-n3nccn3)c2)c(-n2nccn2)cc1C`
20

For the compound `O=C(c1ccccc1-n1nccn1)N1CCOC[C@H]1Cc1cc(-n2nccn2)ccc1F` , what IC50 is on record?
20

---

Target: human orexin-2 receptor (Homo sapiens (Human), UniProt O43614)
Sequence (O43614 whole entry): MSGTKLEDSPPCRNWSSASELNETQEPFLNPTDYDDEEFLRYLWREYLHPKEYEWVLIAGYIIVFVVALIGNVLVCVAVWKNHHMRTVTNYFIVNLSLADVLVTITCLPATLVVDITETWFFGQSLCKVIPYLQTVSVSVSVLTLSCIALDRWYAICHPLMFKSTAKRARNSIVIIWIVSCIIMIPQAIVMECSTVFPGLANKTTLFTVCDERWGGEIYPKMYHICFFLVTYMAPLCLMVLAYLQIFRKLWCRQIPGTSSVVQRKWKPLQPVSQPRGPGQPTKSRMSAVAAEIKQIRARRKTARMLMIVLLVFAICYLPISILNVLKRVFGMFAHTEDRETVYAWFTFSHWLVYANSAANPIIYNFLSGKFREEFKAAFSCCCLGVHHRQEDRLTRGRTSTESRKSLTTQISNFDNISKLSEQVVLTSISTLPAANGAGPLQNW
Test: In vitro intracellular calcium measurements (FLIPR), antagonistic activity on orexin-2 receptor
Type: cell-based
Conditions: CHO cells expressing human orexin-2 receptor; FLIPR; 3 nM orexin-A agonist; 120 min antagonist incubation; geometric mean if determined several times; read-out: IC50 OX2
pIC50 values, listed per item
Lab note: report pIC50 as minus log10 of the concentration in molar units, number only.

Example entries begin here.
{"molecule": "Cc1cccc(C(=O)N2C[C@@H](C)OC[C@H]2Cc2cccc(-n3nccn3)c2)c1-n1nccn1", "endpoint result": 6.63}
{"molecule": "Cc1ccc(-n2nccn2)c(C(=O)N2CCOC[C@H]2Cc2cc(-n3nccn3)ccc2F)c1F", "endpoint result": 5.93}
{"molecule": "O=C(c1cc(Cl)ccc1-n1nccn1)N1CCOC[C@H]1Cc1cc(-c2ncccn2)ccc1F", "endpoint result": 6.31}
{"molecule": "COc1ccc(C[C@@H]2COCCN2C(=O)c2ccccc2-n2nccn2)cc1-c1nccs1", "endpoint result": 6.47}
{"molecule": "Cc1ccc(-n2nccn2)c(C(=O)N2[C@H](Cc3cccc(-n4nccn4)c3)COC[C@@H]2C)c1", "endpoint result": 5.73}

Given the molecule Cc1ccc(-n2nccn2)c(C(=O)N2CCO[C@H](C)[C@H]2Cc2cccc(-n3nccn3)c2)c1 (single isomer, unassigned) , what is its reported pIC50?
5.62

---

Target: human orexin-1 receptor (Homo sapiens (Human), UniProt O43613)
Sequence (O43613 whole entry): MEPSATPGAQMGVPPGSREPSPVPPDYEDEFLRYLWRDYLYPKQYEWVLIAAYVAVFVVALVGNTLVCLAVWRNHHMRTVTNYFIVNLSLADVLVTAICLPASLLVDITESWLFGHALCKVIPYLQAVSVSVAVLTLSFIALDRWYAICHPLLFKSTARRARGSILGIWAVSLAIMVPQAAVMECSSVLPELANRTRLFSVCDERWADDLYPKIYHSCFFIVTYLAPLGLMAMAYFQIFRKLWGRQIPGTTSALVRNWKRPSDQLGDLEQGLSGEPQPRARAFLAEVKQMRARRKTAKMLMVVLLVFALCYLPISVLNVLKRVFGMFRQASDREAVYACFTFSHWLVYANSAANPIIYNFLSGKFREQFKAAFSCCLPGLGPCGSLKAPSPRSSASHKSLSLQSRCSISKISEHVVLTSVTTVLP
Assay: In vitro intracellular calcium measurements (FLIPR), antagonistic activity on orexin-1 receptor
Type: cell-based
Settings: CHO cells expressing human orexin-1 receptor; FLIPR; 3 nM orexin-A agonist; 120 min antagonist incubation; geometric mean if determined several times; read-out: IC50 OX1
Each item that follows carries a reported pIC50.
Would you please state pIC50, meaning minus log10 of the concentration in mol/L, as a bare number?

{"molecule": "O=C(c1cc(Cl)ccc1-n1nccn1)N1CCOC[C@H]1Cc1cc(-c2ncccn2)ccc1F [Example 159]", "measured parameter": "pIC50", "endpoint result": 8.22}
{"molecule": "Cc1cc(C)c(-n2nccn2)c(C(=O)N2CCOC[C@H]2Cc2cccc(-c3ncon3)c2)c1 [Example 89]", "measured parameter": "pIC50", "endpoint result": 8.15}
{"molecule": "Cc1cc(C(=O)N2CCOC[C@H]2Cc2cccc(-n3nccn3)c2)c(-n2nccn2)cc1C [Example 35]", "measured parameter": "pIC50", "endpoint result": 9.00}

If you can, please state the reported pIC50 value of O=C(c1cc(F)c(F)cc1-n1nccn1)N1CCOC[C@H]1Cc1cc(-n2nccn2)ccc1F [Example 137] .
7.52

# lookup: pIC50 of Cc1ccc(C(=O)N2CCOC[C@H]2Cc2cc(-n3nccn3)ccc2F)c(-n2nccn2)c1C [Example 94]
8.22

---

Target: human orexin-2 receptor (Homo sapiens (Human), UniProt O43614)
Experiment: In vitro intracellular calcium measurements (FLIPR), antagonistic activity on orexin-2 receptor
Assay type: cell-based
Conditions: CHO cells expressing human orexin-2 receptor; FLIPR; 3 nM orexin-A agonist; 120 min antagonist incubation; geometric mean if determined several times; read-out: IC50 OX2
Below, each of the compounds is paired with its reported IC50 value.
API: value field is a number in nM; no unit string.

{"structure notation": "Cc1ccc(-n2nccn2)c(C(=O)N2CCOC[C@H]2Cc2cccc(-c3ncon3)c2)c1", "system tested": "human orexin-2 receptor (Homo sapiens (Human), UniProt O43614)", "IC50 / nM": 406}
{"structure notation": "Cc1ccc(-n2nccn2)c(C(=O)N2C[C@@H](C)OC[C@H]2Cc2cccc(-c3ncccn3)c2)c1", "system tested": "human orexin-2 receptor (Homo sapiens (Human), UniProt O43614)", "IC50 / nM": 105}

Param item = `O=C(c1ccc(C(F)(F)F)cc1-n1nccn1)N1CCOC[C@H]1Cc1cccc(-c2ncon2)c1` ; retrieve measured IC50.
227

// lookup IC50 for `Cc1ccc(C(=O)N2CCOC[C@H]2Cc2cc(-c3ncccn3)ccc2F)c(-n2nccn2)c1C`
2260

---

Target: CYP3A4 (Homo sapiens (Human))
Assay: CYP3A4 inhibition assay (human liver microsomes, testosterone 6β-hydroxylation)
Settings: read-out: CYP3A4 IC50, 40 μM testosterone
measured parameter: IC50 (µM)
The reply should be a number in µM, with the unit left off.

# count of solved cases: 3
{"structure notation": "O=C(c1cc(Cl)ccc1-n1nccn1)N1CCOC[C@H]1Cc1cccc(-c2ncon2)c1", "unit abbrev": "µM", "IC50": 21}
{"structure notation": "Cc1ccc(-n2nccn2)c(C(=O)N2CCC[C@H]2Cc2cccc(-n3nccn3)c2)c1", "unit abbrev": "µM", "IC50": 3.3}
{"structure notation": "COc1ccc(C[C@@H]2COCCN2C(=O)c2ccccc2-n2nccn2)cc1-c1ccccn1", "unit abbrev": "µM", "IC50": 21}

Provide value of IC50 for this record tested with CYP3A4 (Homo sapiens (Human)): `Cc1ccc(-n2nccn2)cc1C[C@@H]1COCCN1C(=O)c1cccc(C)c1-n1nccn1`
22

What measured IC50 is associated with `COc1ccc(-n2nccn2)c(C(=O)N2CCOC[C@H]2Cc2cc(-n3nccn3)ccc2F)c1` on CYP3A4 (Homo sapiens (Human))?
35

---

Target: human orexin-1 receptor (Homo sapiens (Human))
Assay: In vitro intracellular calcium measurements (FLIPR), antagonistic activity on orexin-1 receptor
Format: cell-based
Conditions: CHO cells expressing human orexin-1 receptor; FLIPR; 3 nM orexin-A agonist; 120 min antagonist incubation; geometric mean if determined several times; read-out: IC50 OX1
Entries and their pIC50
Answer as the number alone; pIC50 is minus log10 of concentration in mol/L.

As a guide, the following entries are already answered.
{"structure notation": "Cc1ccc(-n2nccn2)c(C(=O)N2CCOC[C@H]2Cc2cccc(-c3cccnc3)c2)c1", "pIC50": 7.96}
{"structure notation": "O=C(c1ccc(Cl)cc1-n1nccn1)N1CCOC[C@H]1Cc1cc(-n2nccn2)ccc1Cl", "pIC50": 8.15}
{"structure notation": "C[C@@H]1CN(C(=O)c2cccc(Cl)c2-n2nccn2)[C@H](Cc2cc(-c3ncccn3)ccc2F)CO1", "pIC50": 7.89}
{"structure notation": "O=C(c1cccc(Cl)c1-n1nccn1)N1CCOC[C@H]1Cc1cc(-c2ncccn2)ccc1F", "pIC50": 7.80}
{"structure notation": "C[C@@H]1CN(C(=O)c2cccc(Cl)c2-n2nccn2)[C@H](Cc2cc(-n3nccn3)ccc2F)CO1", "pIC50": 7.80}

Let's switch to this compound now.
Data request, read-out pIC50, for `Cc1cccc(C(=O)N2CCOC[C@H]2Cc2cccc(-c3ncon3)c2)c1-n1nccn1`
8.15
